Molecular target: oxytocin receptor (Rattus norvegicus, UniProt P70536)
Construct: cell membranes prepared from rat uterus; from tissue; host or cells: rat uterus membranes
Sequence (P70536 whole entry): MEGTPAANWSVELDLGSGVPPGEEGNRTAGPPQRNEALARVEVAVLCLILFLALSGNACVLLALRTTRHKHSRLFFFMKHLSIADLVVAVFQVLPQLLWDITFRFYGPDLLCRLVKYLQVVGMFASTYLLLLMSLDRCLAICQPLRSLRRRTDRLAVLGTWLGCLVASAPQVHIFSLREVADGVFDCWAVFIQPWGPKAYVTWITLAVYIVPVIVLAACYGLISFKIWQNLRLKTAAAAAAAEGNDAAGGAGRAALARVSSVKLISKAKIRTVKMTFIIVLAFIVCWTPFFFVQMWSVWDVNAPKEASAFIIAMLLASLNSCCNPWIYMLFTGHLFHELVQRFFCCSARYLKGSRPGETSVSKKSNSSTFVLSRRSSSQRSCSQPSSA
Assay: 3H-oxytocin binding inhibition, rat uterus cell membranes
Conditions: 1 μM; rat uterus membranes; Re-complexed
Exercise: for every item that follows, state its recorded % Inhibition at 1 μM Oxytocin Receptor (Table 29).
Numbers only, in %.

Below, each entry is followed by its recorded % Inhibition at 1 μM Oxytocin Receptor (Table 29) result.
Which % Inhibition at 1 μM Oxytocin Receptor (Table 29) is reported for this substance? "Caca-D-Trp-Ile-Cys-Thr-Dap-Ala-Pro-Orn-NH2" 0

Could you share which % Inhibition at 1 μM Oxytocin Receptor (Table 29) value was measured for "Pmp-D-Trp-Cys-Ile-Thr-Dap-Ala-Pro-Orn-NH2" ? 0

Given "Caca-D-Trp-Ile-Thr-Dap-Ala-Cys-Pro-Orn-NH2" , state its recorded % Inhibition at 1 μM Oxytocin Receptor (Table 29). 0

Query (substance): "Caca-D-Trp-Ile-Thr-Dap-Ala-Ala-Cys-Orn-NH2" ; field requested: % Inhibition at 1 μM Oxytocin Receptor (Table 29) 0

Look at each substance and report its % Inhibition at 1 μM Oxytocin Receptor (Table 29).
1. Caca-D-Trp-Ile-Thr-Dap-Ala-Cys-Ala-Orn-NH2
2. Caca-D-Trp-Ile-Thr-Dap-Ala-Ala-Orn-Cys-NH2
3. Caca-D-Trp-Ile-Thr-Dap-Cys-Ala-Pro-Orn-NH2
4. Caca-D-Trp-Ile-Thr-Cys-Dap-Ala-Pro-Orn-NH2

1. 0
2. 0
3. 9
4. 0
